Just for reference, BigSolDB 2.1 is where these values come from.

test.conditions: in n-propanol, 308.15 K
property.name: solubility (mole fraction)
Number only, no unit.

The compound identified as CCc1nc(N)nc(N)c1-c1ccc(Cl)cc1 registered its solubility (mole fraction) at 0.00211

====

test.conditions: in isopropyl acetate, 298.15 K
property.name: solubility (mole fraction)
Number only, no unit.

The molecule identified as CCc1nc(N)nc(N)c1-c1ccc(Cl)cc1 registered its solubility (mole fraction) at 0.00129

====

test.conditions: in ethanol, 303.15 K
property.name: solubility (mole fraction)

The compound identified as CCc1nc(N)nc(N)c1-c1ccc(Cl)cc1 registered its solubility (mole fraction) at 0.00147

====

test.conditions: in n-propanol, 318.15 K
property.name: solubility (mole fraction)
Number only, no unit.

The molecule identified as CCc1nc(N)nc(N)c1-c1ccc(Cl)cc1 registered its solubility (mole fraction) at 0.00298

====

test.conditions: in acetone, 313.15 K
property.name: solubility (mole fraction)
Number only, no unit.

The molecule identified as CCc1nc(N)nc(N)c1-c1ccc(Cl)cc1 registered its solubility (mole fraction) at 0.00272

====

test.conditions: in acetonitrile, 283.15 K
property.name: solubility (mole fraction)
Number only, no unit.

The compound identified as CCc1nc(N)nc(N)c1-c1ccc(Cl)cc1 registered its solubility (mole fraction) at 0.000108

====

test.conditions: in isopropanol, 278.15 K
property.name: solubility (mole fraction)
Number only, no unit.

The molecule identified as CCc1nc(N)nc(N)c1-c1ccc(Cl)cc1 registered its solubility (mole fraction) at 0.000234

====

test.conditions: in ethyl acetate, 283.15 K
property.name: solubility (mole fraction)
Number only, no unit.

The compound identified as CCc1nc(N)nc(N)c1-c1ccc(Cl)cc1 registered its solubility (mole fraction) at 0.00151

====

test.conditions: in n-butanol, 278.15 K
property.name: solubility (mole fraction)

The compound identified as CCc1nc(N)nc(N)c1-c1ccc(Cl)cc1 registered its solubility (mole fraction) at 0.000802

====

test.conditions: in ethanol, 313.15 K
property.name: solubility (mole fraction)
Number only, no unit.

The molecule identified as CCc1nc(N)nc(N)c1-c1ccc(Cl)cc1 registered its solubility (mole fraction) at 0.0022

====

test.conditions: in isopropyl acetate, 283.15 K
property.name: solubility (mole fraction)
Number only, no unit.

The compound identified as CCc1nc(N)nc(N)c1-c1ccc(Cl)cc1 registered its solubility (mole fraction) at 0.000717

====

test.conditions: in acetone, 303.15 K
property.name: solubility (mole fraction)
Number only, no unit.

The molecule identified as CCc1nc(N)nc(N)c1-c1ccc(Cl)cc1 registered its solubility (mole fraction) at 0.00215

====

test.conditions: in isopropanol, 293.15 K
property.name: solubility (mole fraction)
Number only, no unit.

The compound identified as CCc1nc(N)nc(N)c1-c1ccc(Cl)cc1 registered its solubility (mole fraction) at 0.00057

====

test.conditions: in acetone, 288.15 K
property.name: solubility (mole fraction)
Number only, no unit.

The compound identified as CCc1nc(N)nc(N)c1-c1ccc(Cl)cc1 registered its solubility (mole fraction) at 0.00147

====

test.conditions: in acetonitrile, 298.15 K
property.name: solubility (mole fraction)
Number only, no unit.

The compound identified as CCc1nc(N)nc(N)c1-c1ccc(Cl)cc1 registered its solubility (mole fraction) at 0.00027
